Tested on: NCI-H460
experimental.details: Cytotoxicity against human H460 cells at 30 uM after 48 hrs by MTT assay
Format: cell-based
run.parameters: nci-h460, 48 h
Numbered stars: 1 amine (or outer) side, 2 acyl side, 3 side chain; on linkers, the order of the positions; unused ones are H or OH. Bridge positions count the residues as written; N and C are the ends. Square brackets hold non-standard residues; d marks the D form. Peptide text beside a SMILES is read from it. ξ: configuration not given here. X1 = C#CCCC[C@H](O[*:2])C(C)(C)C(=O)[*:1]; Hmp(2R,3S) = CC[C@H](C)[C@@H](O)C(=O)O; NMeF = CN[C@@H](Cc1ccccc1)C(=O)O; ξNMeF = CNC(Cc1ccccc1)C(=O)O; NMeV = CN[C@H](C(=O)O)C(C)C; Hiv = CC(C)[C@H](O)C(=O)O; ξNMeV = CNC(C(=O)O)C(C)C; ξP = O=C(O)C1CCCN1
readout.label: Activity

{"columns": ["compound", "readout.label", "recorded.value"],
 "data": [
  ["C#CCCC[C@@H]1OC(=O)CNC(=O)[C@H](Cc2ccccc2)N(C)C(=O)[C@@H]2CCCN2C(=O)[C@@H]([C@@H](C)CC)OC(=O)[C@H](C(C)C)N(C)C(=O)[C@H](C(C)C)NC(=O)C1(C)C (V[NMeV][Hmp(2R,3S)]P[NMeF]G; linker N-C via X1)", "Activity", "Non-Toxic"],
  ["C#CCCC[C@@H]1OC(=O)[C@H](C)NC(=O)[C@H](Cc2ccc(OC)cc2)N(C)C(=O)[C@@H]2CCCN2C(=O)[C@H](Cc2ccccc2)N(C)C(=O)[C@H](C(C)C)NC(=O)C1(C)C", "Activity", "Non-Toxic"],
  ["C#CCCC[C@@H]1OC(=O)CNC(=O)C(Cc2ccccc2)N(C)C(=O)C2CCCN2C(=O)[C@H](C(C)C)OC(=O)C(C(C)C)N(C)C(=O)[C@H](C(C)C)NC(=O)C1(C)C (some centres undefined) (V[ξNMeV][Hiv][ξP][ξNMeF]G; linker N-C via X1)", "Activity", "Non-Toxic"],
  ["C#CCCC[C@H]1OC(=O)CNC(=O)[C@@H](Cc2ccccc2)N(C)C(=O)[C@@H]2CCCN2C(=O)[C@H]([C@@H](C)CC)N(C)C(=O)[C@H](C)NC(=O)[C@H](C)OC(=O)C1(C)C", "Activity", "Non-Toxic"]
]}
